These measurements were taken from PubChem BioAssay AID1159580.

experiment: chemical genetic growth profiling, strain panel (AID 1159580);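 note: tested at 20 µM; growth read once vehicle control cultures reached saturation at 30 °C; lower values mean less growth of the strain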; conditions: S. cerevisiae deletion strains, growth OD, locus YPR106W, strain ISR1
Screen size: about 5,500 compounds; about 2,000 (36%) were called active. Inconclusive results (about 18%) are left out. Cut-off read from the data, not from the text of the source: active = normalized growth mostly below about 0.91 (no sharp cut-off); inconclusive = no clear call, values can overlap the other calls; inactive = mostly above about 0.92. The list shows a part of the results.
Classes to choose from: active, inactive

Which outcome did this test record for the compound C/C(=N/Nc1ccccc1)c1cc(Cl)cc(Cl)c1O ?
inactive

Which outcome did this test record for the compound COc1ccc(CC2CCC(=NOC(=O)c3ccc(C(C)(C)C)cc3)CC2)cc1 (stereo unspecified) ?
inactive

Which outcome did this test record for the compound O=C(NNc1ccc(Cl)cc1)c1ccc(F)cc1F ?
inactive

Which outcome did this test record for the compound N#Cc1ccc(NC(=O)Nc2cccc3ccccc23)cc1 ?
inactive

Which outcome did this test record for the compound CSC(=NNc1ccccc1)NC(=O)c1c(Cl)cccc1Cl ?
inactive

***
Which outcome did this test record for the compound O=C(CCn1c(=O)oc2ccccc21)Sc1ccc(C(F)(F)F)cc1 ?
inactive

Which outcome did this test record for the compound O=C(Nc1ccc(F)c(Cl)c1)c1ccccc1O ?
inactive

Which outcome did this test record for the compound CS(=O)(=O)/C(C#N)=C/c1ccccc1OCc1c(Cl)cccc1Cl ?
inactive

Which outcome did this test record for the compound Oc1ccc(N=Nc2ccccn2)c(O)c1 ?
active

Which outcome did this test record for the compound S=C(Nc1cc(Cl)c(Cl)cc1Cl)Nc1ccccc1Br ?
inactive
